- Tested on: HL-60(TB) leukemia
- EXPERIMENT_SUMMARY: NCI tumour cell line growth inhibition, 48 h
# if value of TGI reaches 20 µM, tag true (1); if it stays below, tag false (0)

>>> class_label("O=C1CSC(c2ccccc2)N1c1nc2cc3sc(N4C(=O)CSC4c4ccccc4)nc3cc2s1 (stereo unspecified)")
"true (1)"
>>> class_label("C[N+]12CCCCC1C(COc1cccc3cccnc13)CCC2 (stereo unspecified)")
"true (1)"
>>> class_label("Cc1cccc(NC(=O)C(=O)Cc2nc3ccccc3[nH]c2=O)c1C")
"true (1)"
>>> class_label("COC(=O)C1C2OC(C)(C)OC2CN1S(=O)(=O)c1ccc(C)cc1 (stereo unspecified)")
"true (1)"
>>> class_label("CC12CCCC(C(=O)O)(C1)[C@H](C(C)(C)C(=O)O)CC2 (stereo partly specified)")
"true (1)"
>>> class_label("O=C1c2ccccc2C(=O)C2NC(CCCCCSSCCCCCC3=NC4C(=O)c5ccccc5C(=O)C4N3)=NC12 (stereo unspecified)")
"true (1)"
>>> class_label("N=C1C(=N)c2ccccc2-c2ccccc21.[Cl-].[Ru+2].c1cnc2c(c1)ccc1cccnc12.c1cnc2c(c1)ccc1cccnc12")
"true (1)"
>>> class_label("CCC#CC[C@H]1C/C=C2/C(=O)C=C[C@@H]2C/C=C\\CCCC(=O)O1")
"false (0)"
>>> class_label("COC(=O)c1cccc2cccc(C(=O)Nc3ccc(C)cc3C)c12")
"true (1)"
>>> class_label("CN(C)CCOc1ccc(/C(=C(/CCCCCCCCCC[P+](c2ccccc2)(c2ccccc2)c2ccccc2)c2ccccc2)c2ccccc2)cc1")
"false (0)"
>>> class_label("O=C1c2c(Br)sc(Br)c2C(NC(=O)C(F)(F)F)C1O (stereo unspecified)")
"true (1)"
>>> class_label("C1=C(CC2=C[P+](c3ccccc3)(c3ccccc3)C=C(c3ccccc3)O2)OC(c2ccccc2)=C[P+]1(c1ccccc1)c1ccccc1")
"false (0)"
>>> class_label("CC(=O)OC1C=C(C=O)C(O)(C=O)C2(C)CCCC(C)(C)C12 (stereo unspecified)")
"false (0)"
>>> class_label("O=C1CC(Br)c2c(Br)sc(Br)c21 (stereo unspecified)")
"true (1)"
>>> class_label("N.N.N.N.N.O=C([O-])c1nn[n-]n1.[Cl-].[Co+3]")
"true (1)"
>>> class_label("COc1ccc(C(=O)COc2cccc(/C=C3\\COc4ccc5ccccc5c4C3=O)c2)cc1")
"false (0)"
>>> class_label("O=c1[nH]c2cccc([N+](=O)[O-])c2c(=O)n1-c1ccc(Cl)cc1")
"true (1)"
>>> class_label("CCN(CC)CCCC(C)Nc1c(C)cnc2cc(Cl)c(C)cc12 (stereo unspecified)")
"true (1)"
>>> class_label("CCOC(=O)Sc1ncnc2nc[nH]c12")
"false (0)"
>>> class_label("COc1ccc(NC(=S)Nc2cc(C)ccn2)cc1")
"true (1)"
